The values you see were collected from the supplement of paper PMC10567573.

B1: ANKRD40 (parent)
chain: VRIQNPSLRENDFIEIELDRQELT

- Variants of: B1
- assay_notes: protein stability index of a GFP-peptide fusion (GPS, HEK-293T) (PSI 1-6); higher = more stable;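 also: lentivirally expressed fusions sorted by FACS into six bins by GFP to DsRed ratio, PSI derived from sequencing read proportions per bin multiplied by bin number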
- experimental_setup: c terminus: a fixed tail appended
Here the recorded protein stability index is given for each entry.
quantity_name: protein stability index

- VRIQNPSLRENDFIEIELDRQEDT [L23D]: 4.25
- VRIQNPSLRENDFIEIELDRQELL [T24L]: 2.09
- VIIQNPSLRENDFIEIELDRQELT [R2I]: 2.29
- VRIQNPSLRENDFIEIELDRQTLT [E22T]: 2.06
- RRIQNPSLRENDFIEIELDRQELT [V1R]: 3.63
- VRIQNPSLRDNDFIEIELDRQELT [E10D]: 2.31
- VRIQNPSLRENDFIEIHLDRQELT [E17H]: 2.62
- VRIQNPSLRENDFIEIELDVQELT [R20V]: 2.29
- VRIQNTSLRENDFIEIELDRQELT [P6T]: 2.02
- VRIQNPSLRENMFIEIELDRQELT [D12M]: 3.11
- VRIQNPSLYENDFIEIELDRQELT [R9Y]: 1.78
- VRIQNPSLLENDFIEIELDRQELT [R9L]: 2.48
- VRIQYPSLRENDFIEIELDRQELT [N5Y]: 1.36
- VRIQNPSLRENDFIEIELDRYELT [Q21Y]: 2.32
- VRIQNPSLWENDFIEIELDRQELT [R9W]: 2.14
- VRIQNPSLRENDFIEIFLDRQELT [E17F]: 1.93
- VRIQNPSLRENAFIEIELDRQELT [D12A]: 1.81
- VSIQNPSLRENDFIEIELDRQELT [R2S]: 3.64
- VRIMNPSLRENDFIEIELDRQELT [Q4M]: 2.04
- VRIQNPSLRENDFIEIELDRQEST [L23S]: 3.89
- VRIQNPSQRENDFIEIELDRQELT [L8Q]: 3.11
- VRIQNASLRENDFIEIELDRQELT [P6A]: 2.75
- VRPQNPSLRENDFIEIELDRQELT [I3P]: 3.77
- VRIQNPSLRENDFIEIELDRQELH [T24H]: 2.63
- VRIQNPSLRENDFIKIELDRQELT [E15K]: 2.47
- VRIQNPSLRENDFIEIELDRGELT [Q21G]: 2.32
- VRIQNPSLRENDFIEIELDRSELT [Q21S]: 2.08
- ERIQNPSLRENDFIEIELDRQELT [V1E]: 4.77
- VRIQNPSLRENWFIEIELDRQELT [D12W]: 2.37
- VRIQNPSLRENDFIEIETDRQELT [L18T]: 4.51
- VRIQNPSLRENDFIEIELDRQELD [T24D]: 3.24
- VRINNPSLRENDFIEIELDRQELT [Q4N]: 2.46
- VFIQNPSLRENDFIEIELDRQELT [R2F]: 1.87
- VRIQNPSLRENDFFEIELDRQELT [I14F]: 2.87
- VHIQNPSLRENDFIEIELDRQELT [R2H]: 3.13
- IRIQNPSLRENDFIEIELDRQELT [V1I]: 2.03
- VRIQNPSLRENDGIEIELDRQELT [F13G]: 4.11
- VRIQNPSNRENDFIEIELDRQELT [L8N]: 2.43
- VRFQNPSLRENDFIEIELDRQELT [I3F]: 2.44
- VRIQNPSLRENDFIEIECDRQELT [L18C]: 3.61
- VRIQNPDLRENDFIEIELDRQELT [S7D]: 2.91
- VCIQNPSLRENDFIEIELDRQELT [R2C]: 2.93
- VRIQNESLRENDFIEIELDRQELT [P6E]: 2.93
- VRIQNPSLRESDFIEIELDRQELT [N11S]: 2.58
- VRIQNPSLRENDFIEIELKRQELT [D19K]: 2.24
- VRIQNPSLRENDFIEIELFRQELT [D19F]: 1.56
- VRIQNPSLRENDHIEIELDRQELT [F13H]: 4.08
- VRIQNPSLRENDFIEIKLDRQELT [E17K]: 2.27
- VRIQNPSPRENDFIEIELDRQELT [L8P]: 3.13
- VRIQNPSLRENDFTEIELDRQELT [I14T]: 3.88
- VRQQNPSLRENDFIEIELDRQELT [I3Q]: 3.71
- VRIQNPSLRENDFIEIYLDRQELT [E17Y]: 2.22
- VRIQNPSLRENDFIEIEVDRQELT [L18V]: 2.85
- VRIQNPSLRENDFIEIELDRQMLT [E22M]: 1.93
- VRIQNYSLRENDFIEIELDRQELT [P6Y]: 1.73
- VAIQNPSLRENDFIEIELDRQELT [R2A]: 2.73
- VRIQNPSLRENDFIEIELDPQELT [R20P]: 1.76
- VRIQNPSLRENDFIEIEYDRQELT [L18Y]: 3.03
- VRIVNPSLRENDFIEIELDRQELT [Q4V]: 2.01
- VRIQNPSLRENDFIEIERDRQELT [L18R]: 4.37
- VRIHNPSLRENDFIEIELDRQELT [Q4H]: 2.11
- VRIQNPSLRENDFIEIEHDRQELT [L18H]: 4.48
- VRIQNPSLRENLFIEIELDRQELT [D12L]: 2.01
- VRIQNPSRRENDFIEIELDRQELT [L8R]: 2.47
- VRIQNPSLRENDFIEIELDRQEMT [L23M]: 2.77
- VRIQNPSLRENDFIEIELDRQALT [E22A]: 2.36
- VRIQNCSLRENDFIEIELDRQELT [P6C]: 2.06
- YRIQNPSLRENDFIEIELDRQELT [V1Y]: 3.41
- VRIQNPSLRENDFIEIELDRQEKT [L23K]: 3.69
- VRIQNPSLREPDFIEIELDRQELT [N11P]: 2.73
- VRIQNPSLRENDFIEAELDRQELT [I16A]: 4.19
- VRIQNPSLSENDFIEIELDRQELT [R9S]: 2.41
- VRIQNPSLCENDFIEIELDRQELT [R9C]: 2.33
- VRIQNPSLRENDFIYIELDRQELT [E15Y]: 2.04
- VLIQNPSLRENDFIEIELDRQELT [R2L]: 2.24
- VRIQNPSLRENDFIEIELDRQPLT [E22P]: 2.34
- VRIQNPSLRENDFIEIELDRCELT [Q21C]: 2.15
- VRIQNPSLRENDFIEIELDRQELS [T24S]: 2.85
- VRIQNPSLRENDFIEIELHRQELT [D19H]: 1.69
- VRIQNPSLRENCFIEIELDRQELT [D12C]: 2.46
- VRIQNPSLRENDFLEIELDRQELT [I14L]: 3
- VEIQNPSLRENDFIEIELDRQELT [R2E]: 4.16
- VRIQNPSLRENPFIEIELDRQELT [D12P]: 2.58
- VRAQNPSLRENDFIEIELDRQELT [I3A]: 4.17
- VRIQNPSLRENDFIEIELDRQELW [T24W]: 1.73
- VRIQNPSLRENDFIEIELDRQEPT [L23P]: 3.26
- VRIQNLSLRENDFIEIELDRQELT [P6L]: 2.17
- VRIQNSSLRENDFIEIELDRQELT [P6S]: 2.16
- VRIQNPSLFENDFIEIELDRQELT [R9F]: 1.51
- VRIQNPELRENDFIEIELDRQELT [S7E]: 2.8
- VRIQNPSLRNNDFIEIELDRQELT [E10N]: 2.15
